Molecular target: HLA-A2 (Homo sapiens, UniProt P04439, D140Y/D185E/D98H/E176V/E277Q/G131W/G231S/I119V/I121R/I166T/I218V/L300P/L318F/N151K/N90K/P208A/P217A/Q86G/Q94H/R138H/R169H/T345S)
Test: Competitive peptide binding assay to purified HLA-A2
Non-standard residues stand in square brackets, D forms with d. Residues, ends and D or L forms follow the SMILES beside them. pS = N[C@@H](COP(=O)(O)O)C(=O)O
Recorded pIC50 by entry
Quick note: pIC50 means taking -log10 of the concentration in moles per liter.

compound: CC[C@H](C)[C@H](NC(=O)[C@H](CC(C)C)NC(=O)[C@@H](N)CCCCN)C(=O)N[C@@H](CC(=O)O)C(=O)N[C@@H](CCCNC(=N)N)C(=O)N[C@H](C(=O)N[C@@H](CCC(=O)O)C(=O)N[C@@H](COP(=O)(O)O)C(=O)N[C@@H](CC(C)C)C(=O)O)[C@@H](C)O [KLIDRTEpSL] (H-KLIDRTE[pS]L-OH)
pIC50: 7.20
//
compound: CC[C@H](C)[C@H](NC(=O)CNC(=O)[C@H](COP(=O)(O)O)NC(=O)[C@H](CC(=O)O)NC(=O)[C@H](CC(C)C)NC(=O)[C@@H](N)Cc1ccc(O)cc1)C(=O)N[C@@H](Cc1c[nH]cn1)C(=O)N[C@@H](CO)C(=O)NCC(=O)N[C@@H](C)C(=O)O [YLDpSGIHSGA] (H-YLD[pS]GIHSGA-OH)
pIC50: 6.84

// next entry
Query block: Quick one: pIC50 of CSCC[C@H](NC(=O)[C@@H]1CCCN1C(=O)CNC(=O)[C@H](COP(=O)(O)O)NC(=O)[C@H](Cc1ccc(O)cc1)NC(=O)[C@@H](NC(=O)[C@@H](N)CCCNC(=N)N)[C@@H](C)O)C(=O)N[C@@H](CC(N)=O)C(=O)N[C@@H](CCCCN)C(=O)N[C@H](C(=O)O)C(C)C [RTYpSGPMNKV] (H-RTY[pS]GPMNKV-OH) ?
Result block: 6.93
